# measuredTarget: UniProt:P34972
# Sequence (P34972 whole entry): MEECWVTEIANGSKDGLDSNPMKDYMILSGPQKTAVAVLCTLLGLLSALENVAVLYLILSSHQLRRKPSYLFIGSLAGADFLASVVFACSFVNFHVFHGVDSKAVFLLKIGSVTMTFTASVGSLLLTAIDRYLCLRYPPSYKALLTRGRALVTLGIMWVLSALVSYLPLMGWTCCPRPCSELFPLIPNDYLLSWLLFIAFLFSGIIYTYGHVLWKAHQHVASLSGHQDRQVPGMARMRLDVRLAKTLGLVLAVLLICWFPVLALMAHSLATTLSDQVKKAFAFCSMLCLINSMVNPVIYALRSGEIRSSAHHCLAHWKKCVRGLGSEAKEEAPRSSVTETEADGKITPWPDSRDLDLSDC
# experimentalProtocol: Agonism of CB2 by detection of cAMP using HTRF
# Assay type: cell-based
# conditionParameters: CHO cells stably expressing CB2 receptor, cAMP HTRF, forskolin-stimulated; average if tested more than once; read-out: hCB2 CHO EC50
pEC50: −log10 of the molar value.

molecule	pEC50
CC(C)(C)c1cnc(-c2nn(-c3c[n+]([O-])ccn3)c3c2CC2CCC3O2)s1 (stereo not shown)	10.22
O=C(NC1(C(F)(F)F)CCC1)c1nn(-c2c[n+]([O-])ccn2)c2c1CC1CCC2O1 (stereo not shown)	10.40
O=C(NC12CC(C1)C2)c1nn(-c2cnccn2)c2c1CC1CCC2O1 (stereo not shown)	9.62
CC(C)(C)[C@@H](CO)NC(=O)c1nn(-c2cnccn2)c2c1C[C@H]1CC[C@@H]2O1	10.05
